assayReadout: melting point

Consider the reported melting point for these molecules:
> print(dat)
                                  molsmiles     recordedresult
1  COc1cc2ncnc(N[C@H](C)c3ccc(F)cc3)c2cc1OCCCCCCC(=O)NO  118.2 to 144.3 °C
2   C#Cc1cccc(Nc2ncnc3ccc(OCC(=O)NO)cc23)c1      189 to 191 °C
3  C#Cc1cccc(Nc2ncnc3ccc(OCCCC(=O)NO)cc23)c1      182 to 186 °C
4  COc1cc2ncnc(NCc3ccc(F)c(Cl)c3)c2cc1OCCCCCCC(=O)NO    143.1 °C (dec.)
5  O=C(CCCOc1ccc2ncnc(Nc3ccc(F)c(Cl)c3)c2c1)NO      128 to 132 °C

Below: the item to evaluate.
q: Respond only with melting point recorded for `C#Cc1cccc(Nc2ncnc3ccc(OCCCCCC(=O)NO)cc23)c1`
a: 176 to 182 °C
